compounds and their reported % of forskolin stimulated cyclic AMP response
molecular target: μ-opioid receptors (MOP receptors) (Mus musculus); construct: expressed in transfected cells; host or cells: HEK293; format: cell-based; conditions: Conc 10^−18 M
Give the value, in units of %, as a plain number.

[O-][n+]1onc(-c2ccccc2)c1-c1ccccc1: 68.7

Now consider the entry below.
Summary for this compound, `[O-][n+]1onc(-c2ccc(F)cc2)c1-c1ccc(F)cc1` : % of forskolin stimulated cyclic AMP response is 38.7

====

molecular target: μ-opioid receptors (MOP receptors) (Mus musculus); construct: expressed in transfected cells; host or cells: HEK293; assay type: cell-based; details: Conc 10^−7 M
Decision: % of forskolin stimulated cyclic AMP response >= 90% yields y, all other cases yield n.

Solved cases below.
[O-][n+]1onc(-c2ccc(F)cc2)c1-c1ccc(F)cc1: n
[O-][n+]1onc(-c2ccccc2)c1-c1ccccc1: y
Cc1c(C(=O)O)no[n+]1[O-]: y

Please indicate if the recorded % of forskolin stimulated cyclic AMP response for `COc1ccc(-c2no[n+]([O-])c2C)cc1` meets or exceeds 90%.
y

====

molecular target: μ-opioid receptors (MOP receptors) (Mus musculus); construct: expressed in transfected cells; host or cells: HEK293; format: cell-based; details: Conc 10^−10 M
observable: % of forskolin stimulated cyclic AMP response (%)
Express the result in % but write the number alone.

Cc1c(-c2ccc(F)cc2)no[n+]1[O-]: 56.5

Form: compound = `CC(=O)c1c(-c2ccccc2)no[n+]1[O-]` ; % of forskolin stimulated cyclic AMP response = 46.0

====

target: μ-opioid receptors (MOP receptors) (Mus musculus, UniProt P42866); construct: expressed in transfected cells; host or cells: HEK293; type: cell-based; details: Conc 10^−15 M
Sequence (P42866 whole entry): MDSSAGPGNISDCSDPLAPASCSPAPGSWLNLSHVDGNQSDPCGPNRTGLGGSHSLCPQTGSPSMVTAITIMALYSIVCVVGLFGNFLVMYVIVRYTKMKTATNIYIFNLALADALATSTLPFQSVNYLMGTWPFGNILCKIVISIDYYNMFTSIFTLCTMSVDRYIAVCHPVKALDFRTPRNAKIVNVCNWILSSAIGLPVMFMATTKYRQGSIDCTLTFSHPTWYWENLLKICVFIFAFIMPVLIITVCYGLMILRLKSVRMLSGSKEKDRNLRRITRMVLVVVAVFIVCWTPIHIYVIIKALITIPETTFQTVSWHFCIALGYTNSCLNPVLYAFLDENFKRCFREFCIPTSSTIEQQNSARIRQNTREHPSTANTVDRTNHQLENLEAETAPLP
observable: % of forskolin stimulated cyclic AMP response (%)
Report the value in % with no unit label.

Sample answers from the record:
CCc1c(C(=O)O)no[n+]1[O-]: 97.6
[O-][n+]1onc(-c2ccc(F)cc2)c1-c1ccc(F)cc1: 64.0
O=Cc1c(-c2ccccc2)no[n+]1[O-]: 103.8
O=C1CCc2c1no[n+]2[O-]: 97.7

Please examine the following record next.
Record `CC(=O)c1c(-c2ccccc2)no[n+]1[O-]` . Reported % of forskolin stimulated cyclic AMP response: 115.4

====

target: μ-opioid receptors (MOP receptors) (Mus musculus); construct: expressed in transfected cells; host or cells: HEK293; format: cell-based; conditions: Conc 10^−13 M
observable: % of forskolin stimulated cyclic AMP response (%)
Express the result in % but write the number alone.

COc1ccc(-c2no[n+]([O-])c2C)cc1 [Compound 24]: 82.3
Cc1c(-c2ccc(F)cc2)no[n+]1[O-] [Compound 23]: 87.6
[O-][n+]1onc(-c2ccccc2)c1CO [Compound 31]: 85.7
[O-][n+]1onc(-c2ccccc2)c1-c1ccccc1 [Compound 5]: 102.3

μ-opioid receptors (MOP receptors) (Mus musculus) data for O=Cc1c(-c2ccccc2)no[n+]1[O-] [Compound 14] ; its % of forskolin stimulated cyclic AMP response: 94.2

Record O=C(O)c1c(-c2ccc(F)cc2)no[n+]1[O-] [Compound 18] / μ-opioid receptors (MOP receptors) (Mus musculus), % of forskolin stimulated cyclic AMP response recorded as 85.4

Value (% of forskolin stimulated cyclic AMP response, μ-opioid receptors (MOP receptors) (Mus musculus)) for record Cc1c(C(=O)O)no[n+]1[O-] [Compound 6] = 128.0

====

target: μ-opioid receptors (MOP receptors) (Mus musculus); construct: expressed in transfected cells; host or cells: HEK293; format: cell-based; settings: Conc 10^−6 M
Threshold rule: % of forskolin stimulated cyclic AMP response greater than or equal to 90% is Criterion met; below that, Criterion not met.

Is the recorded value of % of forskolin stimulated cyclic AMP response equal to or greater than 90% for this molecule? `O=C1CCc2c1no[n+]2[O-]`
Criterion not met

Has `Cc1c(C(=O)O)no[n+]1[O-]` a recorded % of forskolin stimulated cyclic AMP response greater than or equal to 90%?
Criterion met

====

target: μ-opioid receptors (MOP receptors) (Mus musculus, UniProt P42866); construct: expressed in transfected cells; host or cells: HEK293; assay type: cell-based; details: Conc 10^−11 M
observable: % of forskolin stimulated cyclic AMP response (%)
Give just the numeric value; % need not be written.

CCc1c(C(=O)O)no[n+]1[O-] [Compound 8]: 88.3
[O-][n+]1onc(-c2ccccc2)c1CO [Compound 31]: 61.0
[O-][n+]1onc(-c2ccccc2)c1-c1ccccc1 [Compound 5]: 76.3
O=C(c1no[n+]([O-])c1-c1ccccc1)C(F)(F)F [Compound 22]: 59.2
COc1ccc(-c2no[n+]([O-])c2C)cc1 [Compound 24]: 79.4
CC(=O)c1c(-c2ccccc2)no[n+]1[O-] [Compound 27]: 84.4

// O=C1CCc2c1no[n+]2[O-] [Compound 16] : % of forskolin stimulated cyclic AMP response value = 67.1

====

Entries and their measured % of forskolin stimulated cyclic AMP response follow.
target: μ-opioid receptors (MOP receptors) (Mus musculus, UniProt P42866); construct: expressed in transfected cells; host or cells: HEK293; type: cell-based; settings: Conc 10^−7 M
Report the value in % with no unit label.

Cc1c(-c2ccccc2)no[n+]1[O-]: 78.8

Attention now turns to another entry.
% of forskolin stimulated cyclic AMP response for `[O-][n+]1onc(-c2ccccc2)c1CO` is 108.4

====

target: μ-opioid receptors (MOP receptors) (Mus musculus); construct: expressed in transfected cells; host or cells: HEK293; format: cell-based; details: Conc 10^−11 M
observable: % of forskolin stimulated cyclic AMP response (%)
Report the figure in % without appending any unit label.

Field % of forskolin stimulated cyclic AMP response (entry `O=Cc1c(-c2ccccc2)no[n+]1[O-]` ) reads 62.7

====

molecular target: μ-opioid receptors (MOP receptors) (Mus musculus, UniProt P42866); construct: expressed in transfected cells; host or cells: HEK293; assay type: cell-based; settings: Conc 10^−16 M
observable: % of forskolin stimulated cyclic AMP response (%)
Report as a plain number; the unit % is understood.

Some entries whose results are on file:
Cc1c(-c2ccc(F)cc2)no[n+]1[O-] [Compound 23]: 77.1
O=C(c1no[n+]([O-])c1-c1ccccc1)C(F)(F)F [Compound 22]: 73.2
Cc1c(C(=O)O)no[n+]1[O-] [Compound 6]: 149.0
O=Cc1c(-c2ccccc2)no[n+]1[O-] [Compound 14]: 129.8
[O-][n+]1onc(-c2ccccc2)c1CO [Compound 31]: 54.8

Quick note, % of forskolin stimulated cyclic AMP response for COc1ccc(-c2no[n+]([O-])c2C)cc1 [Compound 24] landed at 88.0

Given item CC(=O)c1c(-c2ccccc2)no[n+]1[O-] [Compound 27] , the value recorded as its % of forskolin stimulated cyclic AMP response is 162.4

Measured % of forskolin stimulated cyclic AMP response of [O-][n+]1onc(-c2ccccc2)c1-c1ccccc1 [Compound 5] : 91.2

So, CCc1c(C(=O)O)no[n+]1[O-] [Compound 8] ? Its % of forskolin stimulated cyclic AMP response was 140.5

% of forskolin stimulated cyclic AMP response for O=C1CCc2c1no[n+]2[O-] [Compound 16] is 108.3

Notebook: [O-][n+]1onc(-c2ccc(F)cc2)c1-c1ccc(F)cc1 [Compound 21] , % of forskolin stimulated cyclic AMP response read as 67.7

Notebook: O=C(O)c1c(-c2ccc(F)cc2)no[n+]1[O-] [Compound 18] , % of forskolin stimulated cyclic AMP response read as 89.6

====

molecular target: μ-opioid receptors (MOP receptors) (Mus musculus); construct: expressed in transfected cells; host or cells: HEK293; format: cell-based; settings: Conc 10^−15 M
Marks after values point to notes of the source that are not given here.
observable: % of forskolin stimulated cyclic AMP response

Known % of forskolin stimulated cyclic AMP response results, listed for orientation:
[O-][n+]1onc(-c2ccccc2)c1-c1ccccc1: 117.0%
Cc1c(-c2ccccc2)no[n+]1[O-]: 101.5%
O=C(c1no[n+]([O-])c1-c1ccccc1)C(F)(F)F: 89.0%
Cc1c(C(=O)O)no[n+]1[O-]: 79.0^a %
Cc1c(-c2ccc(F)cc2)no[n+]1[O-]: 80.4%

Sure, the documented % of forskolin stimulated cyclic AMP response for `O=C(O)c1c(-c2ccc(F)cc2)no[n+]1[O-]` is 90.4%

====

target: μ-opioid receptors (MOP receptors) (Mus musculus); construct: expressed in transfected cells; host or cells: HEK293; format: cell-based; details: Conc 10^−13 M
Under this convention, Satisfied denotes % of forskolin stimulated cyclic AMP response strictly below 90% and Not satisfied denotes % of forskolin stimulated cyclic AMP response at or above 90%.

O=C(c1no[n+]([O-])c1-c1ccccc1)C(F)(F)F [Compound 22]: Satisfied
[O-][n+]1onc(-c2ccc(F)cc2)c1-c1ccc(F)cc1 [Compound 21]: Satisfied
CCc1c(C(=O)O)no[n+]1[O-] [Compound 8]: Not satisfied

# input for lookup
Find out if reported % of forskolin stimulated cyclic AMP response for O=C1CCc2c1no[n+]2[O-] [Compound 16] is less than 90%
Not satisfied
